Target: Recombinant JAK3 (Homo sapiens, UniProt P52333)
Construct: purchased Carna Biosciences
Sequence (P52333 1-1124): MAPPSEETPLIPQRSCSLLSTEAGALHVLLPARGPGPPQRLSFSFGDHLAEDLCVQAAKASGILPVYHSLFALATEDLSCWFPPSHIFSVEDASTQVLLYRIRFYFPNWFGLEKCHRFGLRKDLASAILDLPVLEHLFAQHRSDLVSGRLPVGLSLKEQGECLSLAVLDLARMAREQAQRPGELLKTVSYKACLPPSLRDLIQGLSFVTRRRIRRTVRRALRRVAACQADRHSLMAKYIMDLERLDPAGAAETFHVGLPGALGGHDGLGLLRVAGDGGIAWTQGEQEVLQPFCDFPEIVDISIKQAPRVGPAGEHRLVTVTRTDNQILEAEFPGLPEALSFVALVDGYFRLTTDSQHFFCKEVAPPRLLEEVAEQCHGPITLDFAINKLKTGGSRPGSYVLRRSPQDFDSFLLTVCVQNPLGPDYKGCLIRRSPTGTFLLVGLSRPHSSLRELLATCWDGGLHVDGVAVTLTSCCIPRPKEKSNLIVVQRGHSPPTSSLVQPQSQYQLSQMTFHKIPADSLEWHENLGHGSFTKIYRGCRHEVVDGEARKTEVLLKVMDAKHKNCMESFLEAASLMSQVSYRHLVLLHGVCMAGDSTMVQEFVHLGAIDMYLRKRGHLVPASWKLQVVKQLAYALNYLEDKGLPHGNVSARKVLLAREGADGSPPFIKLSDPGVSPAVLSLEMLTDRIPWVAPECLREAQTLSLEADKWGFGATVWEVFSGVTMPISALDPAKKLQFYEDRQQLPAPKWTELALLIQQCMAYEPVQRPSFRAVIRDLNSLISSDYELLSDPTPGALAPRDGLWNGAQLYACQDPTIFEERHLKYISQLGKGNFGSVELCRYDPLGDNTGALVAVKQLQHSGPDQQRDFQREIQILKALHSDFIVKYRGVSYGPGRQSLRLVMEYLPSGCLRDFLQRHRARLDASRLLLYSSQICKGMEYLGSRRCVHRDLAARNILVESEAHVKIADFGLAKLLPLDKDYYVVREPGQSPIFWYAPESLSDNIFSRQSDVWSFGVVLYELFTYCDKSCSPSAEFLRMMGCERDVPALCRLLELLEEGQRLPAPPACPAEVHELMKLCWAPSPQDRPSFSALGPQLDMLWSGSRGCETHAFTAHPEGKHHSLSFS
Experiment: JAK biochemical assay (LANCE Ultra TR-FRET), JAK3
Conditions: recombinant JAK3, TR-FRET; read-out: Biochemical Assay (μM) JAK3
Below is a list of entries, each paired with its recorded IC50 value.

Use the examples below as a reference point.
[
  {
    "COMPOUND": "N#CCC(=O)NCCC(c1ccc(-n2cc(-c3ccnc4[nH]cnc34)cn2)nc1)C(F)(F)F (stereo not shown)",
    "VALUE_MEASURED": "< 0.1 µM"
  },
  {
    "COMPOUND": "O=C(NCC(F)(F)F)n1cc(-c2cccc3[nH]c(=O)[nH]c23)cn1",
    "VALUE_MEASURED": "> 10 µM"
  },
  {
    "COMPOUND": "OC(c1ccc(-n2cc(-c3ccnc4[nH]cnc34)cn2)nc1)(C1CCCC1)C(F)(F)F (stereo not shown)",
    "VALUE_MEASURED": "> 0.1 µM"
  }
]

The reported IC50 of the compound `CC(=O)N1CCC(c2nc3c(-c4cnn(C(=O)NCC(F)(F)F)c4)ccnc3[nH]2)CC1` was > 1 µM
